# System: BT-549
# protocol.details: NCI tumour cell line growth inhibition, 48 h
The source made the active and inactive calls. No stated cut-off is given here; in the data, active = GI50 up to about 1.1 µM and inactive = higher.
Give your call using only these classes: y (active), n (inactive)

**Q:** // return assay outcome for O=c1[nH]nc(Cc2ccccc2)n1/N=C/c1ccc(/C=N/n2c(Cc3ccccc3)n[nH]c2=O)cc1
**A:** n

**Q:** Any idea what this test logged for NC(Cc1ccccc1)P(=O)(O)O (stereo not given) ?
**A:** n

**Q:** Name the outcome recorded for O=c1[nH]c2ccc(Cl)cc2o1 in the assay.
**A:** n

**Q:** # lookup: test call for O=S(=O)(c1cc(Cl)ccc1Cl)N1CCN(S(=O)(=O)c2cc(Cl)ccc2Cl)CC1
**A:** n

**Q:** Which result was noted for this compound in the test: O=C1CC(c2ccco2)C2(C(=O)NC(=O)NC2=O)C(c2ccco2)C1 (stereo not given)
**A:** n

**Q:** What classification did OC(CC1CCCCN1)c1ccc2c(c1)oc1ccccc12 (stereo not given) end up with in this test?
**A:** n

**Q:** Field: outcome | Entry: Cc1c2c(n3c(nc4ccccc43)c1C#N)NCC2
**A:** n

**Q:** Field: outcome | Entry: COc1cccc2c1C(=O)c1c(O)c3c(c(O)c1C2=O)CC(O)(C(O)CO)CC3OC1CC2C(OC3COCC(C#N)N32)C(C)O1 (stereo not given)
**A:** y

**Q:** Short answer needed: outcome of this test for O=[N+]([O-])C(=C1NCCN1)/C(Cl)=C(\Cl)Br ?
**A:** n

**Q:** What did the test return for CO[C@]12C#CC=CC#C[C@@H](O)[C@]3(CCC1)O[C@@]23c1cccc(O)c1 ?
**A:** n

###

# System: NCI-H460
# protocol.details: NCI tumour cell line growth inhibition, 48 h
The source made the active and inactive calls. Rule as the data show it: active = GI50 up to about 1.1 µM and inactive = higher.
Pick one and only one: 1.0 (active), 0.0 (inactive)

**Q:** Identify the outcome logged in this assay for the molecule shown: Cc1c(OCc2cccc3ccccc23)ccc2c(=O)cc(SCCN3CCOCC3)oc12
**A:** 0.0

**Q:** For COc1cc(/C=C2\CCC(C)C3C2=NN(C(C)=O)C3c2cc(OC)c(OC)c(OC)c2)cc(OC)c1OC (stereo unspecified) , what call appears in the results of this test?
**A:** 0.0

**Q:** What did this assay record as the result for CCC1C(C#N)=C(N)OC2=C1C(=O)CC(C)(C)C2 (stereo unspecified) ?
**A:** 0.0

**Q:** Just curious, what result did O=c1[nH]c2cc(-c3ccccc3)nc-2nn1-c1c(Cl)cc(Cl)cc1Cl get here?
**A:** 0.0

**Q:** Tell me the assay call for COc1cc(CNC(=S)CCCCCCCCCCC(C)C)ccc1O please.
**A:** 0.0

**Q:** Tell me the recorded outcome of this test for CC(=NNC(=S)Nc1ccccc1)c1cccc(C(C)=NNC(=S)Nc2ccccc2)n1 .
**A:** 0.0

**Q:** Which result was noted for this molecule in the test: CCC1(c2ccc(OC)c(OC)c2)CCN(S(=O)(=O)c2ccc(C)cc2)C1 (stereo unspecified)
**A:** 0.0

**Q:** Test call for this molecule, please: CCCCCCC(=O)C/C(CCC(=O)N(Cc1ccccc1)Cc1ccccc1)=N\Nc1ccc([N+](=O)[O-])cc1[N+](=O)[O-]
**A:** 0.0

**Q:** # outcome recorded in this test, key = Cc1nc(-n2nc(-c3ccccc3)cc2-c2ccccc2)sc1C(/C=C/c1ccc([N+](=O)[O-])cc1)=N/NC(=O)c1ccncc1
**A:** 0.0

**Q:** What did the test return for Cc1ccc2c(c1)nc(N)n[n+]2[O-] ?
**A:** 0.0

**Q:** So what was the verdict on CCCCCCc1cc2cc(C(=O)Nc3ccc(F)cc3)c(=N)oc2cc1O in this test?
**A:** 0.0

**Q:** Dear all, I need the recorded test outcome for Cc1ccccc1NC(=O)/C(C#N)=N\Nc1[nH]cnc1C(N)=O , thank you.
**A:** 0.0

**Q:** Each molecule tested received a call. Report the one for COc1ccc(C2c3cc4c(cc3OC(O)(CO)C2C(=O)O)OCO4)cc1.COc1ccc(C2c3cc4c(cc3OC3(O)COC(=O)C23)OCO4)cc1 (stereo unspecified) .
**A:** 0.0

**Q:** Entry CN(C)c1ccc(/C=C/C(=O)c2cc(C(C)(C)C)c(O)c(C(C)(C)C)c2)cc1 : call = ?
**A:** 1.0

**Q:** What did this assay record as the result for CCOC(=O)c1csc(NC(=O)CN2CCOCC2)n1 ?
**A:** 0.0

**Q:** Which outcome was assigned to COc1ccc(/N=C2/C(=N/c3ccc(OC)cc3)N(c3ccccc3)C(=S)N2N=C=C2Sc3ccccc3N2C)cc1 in this test?
**A:** 0.0

**Q:** Please let me know the test result on file for N#CC1CNC(N)NC1N (stereo unspecified) .
**A:** 0.0

**Q:** What outcome does the record of this test show for Nc1n[n+]([O-])c2ccccc2[n+]1[O-] [TIRAPAZAMINE] ?
**A:** 0.0

**Q:** Could you check what this test reported for S=C(NN=C1NCCCCN1)Nc1ccc(Cl)cc1 ?
**A:** 0.0

**Q:** Check the results log: what was the call for CCN1CCC(O)(c2ccc(Oc3ccc(Cl)cc3)cc2)C(C(=O)c2ccc(Oc3ccc(Cl)cc3)cc2)C1 (stereo unspecified) ?
**A:** 0.0

**Q:** Could you check what this test reported for O=C(O)C1C(=O)Oc2c(cccc2[N+](=O)[O-])C1O (stereo unspecified) ?
**A:** 0.0

**Q:** Record request — test call for Cc1ccc(C2(N3CCOCC3)OC(C)(C)c3cccc4cccc2c34)cc1 (stereo unspecified)
**A:** 0.0

**Q:** Test call for this molecule, please: COc1ccc(-c2cc(=O)c3c(O)cc(C)cc3o2)cc1OC
**A:** 0.0

**Q:** Write down the call the test reported for this molecule. Item: OC(CCN1CCN(CCOC(c2ccc(F)cc2)c2ccc(F)cc2)CC1)c1ccc(Br)cc1 (stereo unspecified)
**A:** 0.0

**Q:** What outcome does the record of this test show for Brc1cccc(C2SCc3nc4ccccc4n32)c1 (stereo unspecified) ?
**A:** 0.0

**Q:** What classification did Cc1cc(=O)oc2cc(OC(=O)N(CCCl)CCCl)ccc12 end up with in this test?
**A:** 0.0

**Q:** # fetch the recorded call for N#C/N=C(/NCCc1c[nH]c2ccccc12)Oc1ccccc1 here
**A:** 0.0

**Q:** Please let me know the test result on file for Cc1cn2c(C)csc2c1P(=O)(OC(C)C)OC(C)C .
**A:** 0.0

**Q:** Recorded test outcome, item O=S(=O)(c1cc(Cl)ccc1Cl)N1CCN(S(=O)(=O)c2cc(Cl)ccc2Cl)CC1
**A:** 0.0

**Q:** What outcome does the record of this test show for COc1cc2c(cc1OC)C(Cl)C(c1ccc(Br)cc1)=C2Cl (stereo unspecified) ?
**A:** 0.0

**Q:** Outcome logged for CCCCCCCCCCCC(=O)c1c(O)cccc1O in this assay:
**A:** 0.0

**Q:** Given N#Cc1c2c(c(Nc3ccc(F)cc3)n3c1nc1ccccc13)CCC2 , state the outcome it received in this test.
**A:** 0.0

**Q:** Outcome? Cc1cc(Cl)nc2ccc(Cc3ccc4nc(Cl)cc(C)c4c3)cc12
**A:** 0.0

**Q:** Query: recorded result category for O=C(CCCCCCCCC(=O)N1C(=O)CC(=O)N(c2ccccc2)C1=S)N1C(=O)CC(=O)N(c2ccccc2)C1=S in this test
**A:** 0.0

**Q:** Hello, I am checking results. What call was entered for C[C@]12CC[C@H](OC(=O)Nc3ccccc3)CC1=CC[C@@H]1C2CC[C@]2(C)/C(=N/OC(=O)Nc3ccccc3)CCC12 (stereo partly specified) ?
**A:** 0.0

**Q:** What classification did COc1ccc(/C=c2\sc3nnc(CCC(=O)Nc4cccc(C(F)(F)F)c4)n3c2=O)cc1 end up with in this test?
**A:** 0.0

**Q:** I'd appreciate the recorded outcome for O=C1NC(=O)C(C(c2ccc(Cl)cc2)C2C(=O)NC(=O)NC2=O)C(=O)N1.c1ccncc1 from this test.
**A:** 0.0

**Q:** Hello, I am checking results. What call was entered for COC(=N)C12C(N)=NC(OC)(OC)C1(C#N)C21C(=O)N(c2ccccc2)N=C1C (stereo unspecified) ?
**A:** 0.0

**Q:** Hi, do you know how O=S(=O)(Nc1nc2ccccc2nc1Nc1cccc2ccccc12)c1ccccc1 came out in this test?
**A:** 0.0

**Q:** Each molecule tested received a call. Report the one for O=C(Nc1ccc(Cl)c(Cl)c1)C(=O)C(C1OC(=O)c2ccccc21)[N+](=O)[O-] (stereo unspecified) .
**A:** 0.0

**Q:** State the result this test recorded for CC1CC(N2CCOCC2)=Nc2ccccc2N1Cc1ccccc1 (stereo unspecified) .
**A:** 0.0
